# reported % Viability in organoids; entries follow
System: murine intestinal organoids
test_protocol: Intestinal tolerability assay on murine intestinal organoids
Type: cell-based, mouse
condition_notes: 50 µM
Respond numerically; units are % and should not be typed.

Observe how each entry below is paired with its result.
| compound_structure_string | % Viability in organoids (%) |
| --- | --- |
| COc1ccc2[nH]c(NCc3ccc(N4CCCC4)cc3)nc2c1 | 38.00 |
| COc1ccc(-c2nc3cc(Cl)ccc3[nH]2)cc1 | 47.30 |
| COc1ccc(-c2nc3cc(C)ccc3[nH]2)cc1 | 10.50 |

Next up:
Task: Give recorded % Viability in organoids. Clc1ccc2[nH]c(NCc3ccccc3)nc2c1
Output: 52.10

---

test_protocol: Intestinal tolerability assay on murine intestinal organoids
Format: cell-based, mouse
condition_notes: C57BL/6, mouse, murine small-intestinal organoids, 50 µM; 72 h
# reported viability at 72 h, 50 µM; entries follow
Respond numerically; units are % and should not be typed.

| compound_structure_string | parameter | measurement_unit | reported |
| --- | --- | --- | --- |
| O=C(Nc1nc2cc(Cl)ccc2[nH]1)c1ccccc1 | viability at 72 h, 50 µM | % | 56.7 |

Next up:
Task: Give recorded viability at 72 h, 50 µM. Cc1ccc2[nH]c(NCc3cccs3)nc2c1
Output: 52.4

---

test_protocol: Intestinal tolerability assay on murine intestinal organoids
Type: cell-based, mouse
condition_notes: C57BL/6, mouse, murine small-intestinal organoids, 25 µM; 72 h
parameter: viability at 72 h, 25 µM (%)
Respond numerically; units are % and should not be typed.

Observe how each entry below is paired with its result.
| molecule | measurement_unit | viability at 72 h, 25 µM |
| --- | --- | --- |
| COc1ccc2[nH]c(NC(=O)c3ccccc3)nc2c1 [BZD56] | % | 82.5 |
| Cc1ccc2[nH]c(NC(=O)c3ccccc3)nc2c1 [BZD46] | % | 99.7 |
| O=C(Nc1nc2cc(Cl)ccc2[nH]1)c1ccccc1 [BZD59] | % | 82.7 |

Next up:
Task: Give recorded viability at 72 h, 25 µM. Cc1ccc2[nH]c(NCc3cccs3)nc2c1 [BZD31]
Output: 60.5

---

# reported CC50; entries follow
Tested on: HepG2 cells
test_protocol: Cytotoxicity assay, alamarBlue
Assay type: cell-based, human

Observe how each entry below is paired with its result.
| compound_structure_string | test_target | CC50 |
| --- | --- | --- |
| O=C(Nc1nc2cc(Cl)ccc2[nH]1)c1ccccn1 | HepG2 cells | > 5 µM |
| COc1ccc(-c2nc3cc(Cl)ccc3[nH]2)cc1 | HepG2 cells | > 50 µM |
| Cc1ccc2[nH]c(NC(=O)c3ccccn3)nc2c1 | HepG2 cells | > 100 µM |

Next up:
Task: Give recorded CC50. COc1ccc2[nH]c(NCc3ccc(N4CCCC4)cc3)nc2c1
Output: > 100 µM

---

System: Fasciola hepatica eggs (ABZ-susceptible isolate)
test_protocol: Egg hatch test (EHT), ABZ-susceptible isolates
Assay type: cell-based
condition_notes: 50 µM; ABZ-susceptible isolate; mean ± SEM
# reported % Ovicidal activity; entries follow
I'd appreciate it if you wrote the number followed by its unit.

Observe how each entry below is paired with its result.
| compound | % Ovicidal activity |
| --- | --- |
| COc1ccc(-c2nc3ccccc3[nH]2)cc1 [BZD01] | 20.07 ± 9.32% |
| COc1ccc(C(=O)Nc2nc3cc(OC)ccc3[nH]2)cc1 [BZD60] | 01.08 ± 0.79% |
| COc1cc(CNc2nc3cc(C)c(C)cc3[nH]2)cc(OC)c1OC [BZD42] | 10.73 ± 3.26% |

Task: Give recorded % Ovicidal activity. COc1ccc2[nH]c(NCc3ccccc3)nc2c1 [BZD36]
Output: 70.94 ± 2.32%

Task: Give recorded % Ovicidal activity. O=[N+]([O-])c1ccc2[nH]c(-c3ccc(Cl)cc3)nc2c1 [BZD15]
Output: 24.32 ± 10.58%

---

test_protocol: Intestinal tolerability assay on murine intestinal organoids
Format: cell-based, mouse
condition_notes: C57BL/6, mouse, murine small-intestinal organoids, 50 µM; 72 h
# reported viability at 72 h, 50 µM; entries follow

| compound | viability at 72 h, 50 µM |
| --- | --- |
| CSc1nc2cc(Cl)c(Oc3cccc(Cl)c3Cl)cc2[nH]1 [TCBZ, triclabendazole, reference compound] | ~1.5% |
| Cc1ccc2[nH]c(NC(=O)c3ccccc3)nc2c1 | > 87% |

Next up:
Task: Give recorded viability at 72 h, 50 µM. COc1ccc2[nH]c(NC(=O)c3ccccc3)nc2c1
Output: > 87%
